# Test system: Escherichia coli TOP10
# assay method text: shrunken log2 fold change of peptide-encoding DNA abundance (4.5 h post-induction vs induction); higher = less antimicrobial activity (less host growth inhibition)
# condition parameters: time post-induction: 4.5 h; library: site-saturation at positions 5, 18, 19, 20
sequences and their reported shrunken log2 fold change
// keep it numeric: no unit symbol after the value

Worked examples follow.
sequence_record=RRIRHRPPRLPRPRPRPYKHPRP tested_on="Escherichia coli TOP10" number=-0.512
sequence_record=RRIRMRPPRLPRPRPRPKCRPRP tested_on="Escherichia coli TOP10" number=0.0493
sequence_record=RRIRERPPRLPRPRPRPRRLPRP tested_on="Escherichia coli TOP10" number=0.138
sequence_record=RRIRARPPRLPRPRPRPAYYPRP tested_on="Escherichia coli TOP10" number=-0.166

[Q] I am curious: what shrunken log2 fold change value has been reported for RRIRGRPPRLPRPRPRPMAQPRP ?
[A] 1.07

[Q] Try the sequence RRIRVRPPRLPRPRPRPVWNPRP
[A] 0.152

[Q] Try the sequence RRIRGRPPRLPRPRPRPWWVPRP
[A] 0.0839

[Q] Try the sequence RRIRSRPPRLPRPRPRPKFRPRP
[A] -0.183

[Q] Try the sequence RRIRPRPPRLPRPRPRPCIRPRP
[A] -0.14

====

# Tested on: Escherichia coli TOP10
# assay method text: shrunken log2 fold change of peptide-encoding DNA abundance (4.5 h post-induction vs induction); higher = less antimicrobial activity (less host growth inhibition)
# condition parameters: time post-induction: 4.5 h; library: site-saturation at positions 5, 18, 19, 20
Threshold check on shrunken log2 fold change: at or above -0.02 gives met, strictly below gives not met.

sequence_record=RRIRYRPPRLPRPRPRPRSCPRP category_label="not met"
sequence_record=RRIRTRPPRLPRPRPRPSKDPRP category_label="not met"
sequence_record=RRIRCRPPRLPRPRPRPYTEPRP category_label="not met"
sequence_record=RRIRGRPPRLPRPRPRPKYMPRP category_label=met
sequence_record=RRIRFRPPRLPRPRPRPICEPRP category_label=met

[Q] Quick check, shrunken log2 fold change >= -0.02? RRIRARPPRLPRPRPRPTSIPRP
[A] met

[Q] Try the sequence RRIRLRPPRLPRPRPRPGLEPRP
[A] met

[Q] Try the sequence RRIRVRPPRLPRPRPRPVFCPRP
[A] met

[Q] Try the sequence RRIRHRPPRLPRPRPRPAWTPRP
[A] not met

[Q] Try the sequence RRIRPRPPRLPRPRPRPIMLPRP
[A] not met

[Q] Try the sequence RRIRNRPPRLPRPRPRPFGLPRP
[A] not met

[Q] Try the sequence RRIRYRPPRLPRPRPRPEIFPRP
[A] not met

[Q] Try the sequence RRIRCRPPRLPRPRPRPWFMPRP
[A] not met

[Q] Try the sequence RRIRYRPPRLPRPRPRPQMTPRP
[A] met

[Q] Try the sequence RRIRHRPPRLPRPRPRPMNLPRP
[A] not met

====

# Test system: Escherichia coli TOP10
# assay method text: shrunken log2 fold change of peptide-encoding DNA abundance (4.5 h post-induction vs induction); higher = less antimicrobial activity (less host growth inhibition)
# condition parameters: time post-induction: 4.5 h; library: site-saturation at positions 5, 18, 19, 20
sequences and their reported shrunken log2 fold change
// keep it numeric: no unit symbol after the value

Worked examples follow.
sequence_record=RRIRKRPPRLPRPRPRPFEMPRP number=0.911
sequence_record=RRIRQRPPRLPRPRPRPINYPRP number=-0.0444
sequence_record=RRIRRRPPRLPRPRPRPLWPPRP number=0.484
sequence_record=RRIRARPPRLPRPRPRPQMEPRP number=-0.154
sequence_record=RRIRLRPPRLPRPRPRPVQDPRP number=-0.105
sequence_record=RRIRWRPPRLPRPRPRPREKPRP number=1.16

[Q] What is its shrunken log2 fold change for Escherichia coli TOP10? Entry: RRIRRRPPRLPRPRPRPLPNPRP
[A] -0.0597

[Q] Try the sequence RRIRQRPPRLPRPRPRPDFFPRP
[A] 0.00508

[Q] Try the sequence RRIRKRPPRLPRPRPRPMHLPRP
[A] -0.0647

[Q] Try the sequence RRIRIRPPRLPRPRPRPFHFPRP
[A] -0.27

[Q] Try the sequence RRIRPRPPRLPRPRPRPEMFPRP
[A] -0.112

====

# Tested on: Escherichia coli TOP10
# assay method text: shrunken log2 fold change of peptide-encoding DNA abundance (4.5 h post-induction vs induction); higher = less antimicrobial activity (less host growth inhibition)
# condition parameters: time post-induction: 4.5 h; library: site-saturation at positions 5, 18, 19, 20
Threshold check on shrunken log2 fold change: at or above -0.01 gives Criterion met, strictly below gives Criterion not met.

sequence_record=RRIRIRPPRLPRPRPRPLNAPRP category_label="Criterion not met"
sequence_record=RRIRDRPPRLPRPRPRPGYEPRP category_label="Criterion not met"
sequence_record=RRIRYRPPRLPRPRPRPKDFPRP category_label="Criterion met"
sequence_record=RRIRLRPPRLPRPRPRPAKQPRP category_label="Criterion met"
sequence_record=RRIRDRPPRLPRPRPRPGLSPRP category_label="Criterion met"

[Q] Quick check, shrunken log2 fold change >= -0.01? RRIRMRPPRLPRPRPRPSGLPRP
[A] Criterion met

[Q] Try the sequence RRIRMRPPRLPRPRPRPVPYPRP
[A] Criterion met

[Q] Try the sequence RRIRLRPPRLPRPRPRPSVIPRP
[A] Criterion not met

====

# Tested on: Escherichia coli TOP10
# assay method text: shrunken log2 fold change of peptide-encoding DNA abundance (4.5 h post-induction vs induction); higher = less antimicrobial activity (less host growth inhibition)
# condition parameters: time post-induction: 4.5 h; library: site-saturation at positions 5, 18, 19, 20
Threshold check on shrunken log2 fold change: at or above -0.02 gives 1.0, strictly below gives 0.0.

sequence_record=RRIRWRPPRLPRPRPRPTDCPRP category_label=1.0
sequence_record=RRIRQRPPRLPRPRPRPSAYPRP category_label=0.0
sequence_record=RRIRTRPPRLPRPRPRPLMKPRP category_label=0.0
sequence_record=RRIRSRPPRLPRPRPRPDLLPRP category_label=0.0
sequence_record=RRIRMRPPRLPRPRPRPMQNPRP category_label=1.0

[Q] Quick check, shrunken log2 fold change >= -0.02? RRIRWRPPRLPRPRPRPIKKPRP
[A] 0.0

[Q] Try the sequence RRIRKRPPRLPRPRPRPFAQPRP
[A] 1.0

[Q] Try the sequence RRIRHRPPRLPRPRPRPGQIPRP
[A] 1.0

====

sequences and their reported shrunken log2 fold change
# System: Escherichia coli TOP10
# assay method text: shrunken log2 fold change of peptide-encoding DNA abundance (4.5 h post-induction vs induction); higher = less antimicrobial activity (less host growth inhibition)
# condition parameters: time post-induction: 4.5 h; library: site-saturation at positions 5, 18, 19, 20
// keep it numeric: no unit symbol after the value

sequence_record=RRIRWRPPRLPRPRPRPPKPPRP tested_on="Escherichia coli TOP10" number=0.648
sequence_record=RRIRFRPPRLPRPRPRPDQDPRP tested_on="Escherichia coli TOP10" number=-0.00191
sequence_record=RRIRARPPRLPRPRPRPAHSPRP tested_on="Escherichia coli TOP10" number=0.469
sequence_record=RRIRWRPPRLPRPRPRPAFEPRP tested_on="Escherichia coli TOP10" number=0.183
sequence_record=RRIRQRPPRLPRPRPRPCFSPRP tested_on="Escherichia coli TOP10" number=-0.0347
sequence_record=RRIRKRPPRLPRPRPRPPYTPRP tested_on="Escherichia coli TOP10" number=0.0509
sequence_record=RRIRQRPPRLPRPRPRPALMPRP tested_on="Escherichia coli TOP10" number=0.0376

Then this sequence:
[Q] What is its shrunken log2 fold change for Escherichia coli TOP10? Entry: RRIRTRPPRLPRPRPRPGAGPRP
[A] 0.286

====

sequences and their reported shrunken log2 fold change
# Test system: Escherichia coli TOP10;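 also: peptides expressed intracellularly from a pBAD plasmid library in pooled LB shake-flask culture, induced with 0.3% L-arabinose, DNA abundance read by NGS, three biological replicates, DESeq2 with apeglm shrinkage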
# assay method text: shrunken log2 fold change of peptide-encoding DNA abundance (4.5 h post-induction vs induction); higher = less antimicrobial activity (less host growth inhibition)
# condition parameters: time post-induction: 4.5 h; library: site-saturation at positions 5, 18, 19, 20
// keep it numeric: no unit symbol after the value

sequence_record=RRIRQRPPRLPRPRPRPPFFPRP number=0.249
sequence_record=RRIRNRPPRLPRPRPRPHGMPRP number=-0.0652
sequence_record=RRIRARPPRLPRPRPRPGSQPRP number=0.368

[Q] I am curious: what shrunken log2 fold change value has been reported for RRIRRRPPRLPRPRPRPFVKPRP ?
[A] -0.373

[Q] Try the sequence RRIRKRPPRLPRPRPRPIGWPRP
[A] 0.7

[Q] Try the sequence RRIRYRPPRLPRPRPRPYFFPRP
[A] -0.792

[Q] Try the sequence RRIRERPPRLPRPRPRPFKYPRP
[A] -0.0322

[Q] Try the sequence RRIRLRPPRLPRPRPRPCHFPRP
[A] -0.285

[Q] Try the sequence RRIRFRPPRLPRPRPRPFWCPRP
[A] -0.27

[Q] Try the sequence RRIRWRPPRLPRPRPRPQLFPRP
[A] 0.0645

[Q] Try the sequence RRIRCRPPRLPRPRPRPGEYPRP
[A] 0.0239

// data source = the supplement of paper PMC9112550
